- test: The drug is tested on Clostridium scindens strain: ATCC35704 for biotransformation. The drug concentrations were measured before and after a 12-h incubation by liquid-chromatography-coupled mass spectrometry (LC–MS)
- experimental parameters: 2 µM
observable: Bacterial Biotransformation

>>> assay_result("CCCc1nc(C(C)(C)O)c(C(=O)OCc2oc(=O)oc2C)n1Cc1ccc(-c2ccccc2-c2nnn[nH]2)cc1 [OLMESARTAN MEDOXOMIL]")
"Compound metabolized"
>>> assay_result("O=C1NCC2(CCN(CCc3ccccc3)CC2)O1 [FENSPIRIDE]")
"Compound NOT metabolized"
>>> assay_result("CN1CCC(OC(c2ccccc2)c2ccccc2)CC1")
"Compound NOT metabolized"
>>> assay_result("CC(C)[C@H]1CC[C@H](C(=O)N[C@H](Cc2ccccc2)C(=O)O)CC1 [NATEGLINIDE]")
"Compound NOT metabolized"
>>> assay_result("Cc1nc2n(c(=O)c1CCN1CCC(c3noc4cc(F)ccc34)CC1)CCCC2O (centres undefined) [PALIPERIDONE]")
"Compound metabolized"
>>> assay_result("CCCC(=O)Nc1ccc(OCC(O)CNC(C)C)c(C(C)=O)c1 (centres undefined) [ACEBUTOLOL]")
"Compound NOT metabolized"
>>> assay_result("CN1CCc2cccc3c2[C@H]1Cc1ccc(O)c(O)c1-3 [APOMORPHINE]")
"Compound NOT metabolized"
>>> assay_result("O=C(NC(Cc1cc(=O)[nH]c2ccccc12)C(=O)O)c1ccc(Cl)cc1 (centres undefined) [REBAMIPIDE]")
"Compound NOT metabolized"
>>> assay_result("CCN(CC)C(C)CN1c2ccccc2Sc2ccccc21 (centres undefined) [ETHOPROPAZINE]")
"Compound NOT metabolized"
>>> assay_result("O=C(O)COCCN1CCN(C(c2ccccc2)c2ccc(Cl)cc2)CC1 (centres undefined) [CETIRIZINE]")
"Compound NOT metabolized"
>>> assay_result("CCN(CC)CCNC(C(=O)OCCC(C)C)c1ccccc1.Cl.Cl (centres undefined)")
"Compound NOT metabolized"
>>> assay_result("CO[C@]12C[C@@H](COC(=O)c3cncc(Br)c3)CN(C)[C@@H]1Cc1cn(C)c3cccc2c13 [NICERGOLINE]")
"Compound NOT metabolized"
>>> assay_result("O=C(CCCN1CCC(O)(c2ccc(Cl)cc2)CC1)c1ccc(F)cc1 [HALOPERIDOL]")
"Compound NOT metabolized"
>>> assay_result("C=CC[C@@H]1/C=C(\\C)C[C@H](C)C[C@H](OC)[C@H]2O[C@@](O)(C(=O)C(=O)N3CCCC[C@H]3C(=O)O[C@H](/C(C)=C/[C@@H]3CC[C@@H](O)[C@H](OC)C3)[C@H](C)[C@@H](O)CC1=O)[C@H](C)C[C@@H]2OC.O [TACROLIMUS]")
"Compound metabolized"
>>> assay_result("Cc1nc(-c2ccc(OCC(C)C)c(C#N)c2)sc1C(=O)O [FEBUXOSTAT]")
"Compound NOT metabolized"
>>> assay_result("Cc1cn([C@H]2C[C@H](N=[N+]=[N-])[C@@H](CO)O2)c(=O)[nH]c1=O [ZIDOVUDINE]")
"Compound NOT metabolized"
>>> assay_result("CCOC(=O)C1=C[C@]2(CC)CCCN3CCc4c(n1c1ccccc41)[C@@H]32 [VINPOCETINE]")
"Compound NOT metabolized"
>>> assay_result("CC1=C(CC(=O)O)c2cc(F)ccc2/C1=C\\c1ccc([S+](C)[O-])cc1 (centres undefined)")
"Compound NOT metabolized"
>>> assay_result("Cc1ccc(/C(=C\\CN2CCCC2)c2ccccn2)cc1 [TRIPROLIDINE]")
"Compound NOT metabolized"
>>> assay_result("CCCc1nn(C)c2c(=O)[nH]c(-c3cc(S(=O)(=O)N4CCN(C)CC4)ccc3OCC)nc12.O=C(O)CC(O)(CC(=O)O)C(=O)O [SILDENAFIL CITRATE]")
"Compound NOT metabolized"
>>> assay_result("Cc1ccc(S(=O)(=O)NC(=O)NN2CCCCCC2)cc1 [TOLAZAMIDE]")
"Compound NOT metabolized"
>>> assay_result("CCN1CCCC1CNC(=O)c1cc(S(=O)(=O)CC)c(N)cc1OC (centres undefined) [AMISULPRIDE]")
"Compound NOT metabolized"
>>> assay_result("CC(=O)O[C@]1(C(C)=O)CC[C@H]2[C@@H]3C=C(C)C4=CC(=O)CC[C@]4(C)[C@H]3CC[C@@]21C [MEGESTROL ACETATE]")
"Compound metabolized"
>>> assay_result("CCCN1C[C@H](CSC)C[C@@H]2c3cccc4[nH]cc(c34)C[C@H]21.CS(=O)(=O)O [PERGOLIDE MESYLATE]")
"Compound NOT metabolized"

Source listed as ChEMBL document CHEMBL5303573.
